Data provenance is the nanobody polyreactivity screen of Harvey et al. (2022).

Assay: yeast display, Sf9 membrane polyspecificity reagent, FACS + sequencing; frameworks hold sequencing errors
reported-property: polyreactivity (PSR sort gate)

Look over these answered cases.
INSERT INTO results (biopolymer_sequence, reported_value) VALUES
  ('QVQLVESGGGLVQAGGSLRLSCAASGLTIFVNAMGWYRQAPGKERELVATISGGGSTYYADSVKGRFTISRDNAKNTVYLQMNSLKPEDTAVYYCNAADVGGPWWYPYTYNYWGQGTQVTVSS', 'low polyreactivity'),
  ('QVQLVESGGGLVQAGGSLRLSCAASGNIFAIYAMGWYIQAPGKEREFVAAIDWSVASTYYADSVKGRFTISRDNAKNTVYLQMNSLKPEDTAVYYCAAELYGLKYAYYLSYDYWGQGTQVTVSS', 'high polyreactivity'),
  ('QDQLVESGGGLVHAGGSLRLSCAASVSIFVRNAMGWYRQAPGKERELVAADSVKGRFTISRDNAKNTVYLQMNSLKPEDTAVYYCNKDYIIRRGPIVYYGFDYWGQGTQVTVSS', 'low polyreactivity'),
  ('QVQLVESGGGLVQAGGSLRLSCAASGSIFRGYAMGWYRQAPGKERELVAAISWSGGSTYYADSVKGRFTISRDNAKNTVYLQMNSLKPEDTAVYYCAVEYVAYLYRMDYWGQGTQVTVSS', 'high polyreactivity');

Attention now shifts to the item below.
Query :: Requested field: polyreactivity (PSR sort gate). Item: QVQLVESCGGLLQAGGSLRLSCAASGRTFTQYAMGCYRQAPGKERELVAAISWSDDITYYADSVKGRCTISRDIAQYTVYLQMNSLKPEDTAVYYCATEGYWGYDYDYWGQGTQVTVSS
Result :: high polyreactivity
